Data origin, for the record: ChEMBL document CHEMBL3421574

- TARGET: ADP-ribosyl cyclase/cyclic ADP-ribose hydrolase 1 (Homo sapiens) (UniProt P28907)
- Sequence (P28907 whole entry): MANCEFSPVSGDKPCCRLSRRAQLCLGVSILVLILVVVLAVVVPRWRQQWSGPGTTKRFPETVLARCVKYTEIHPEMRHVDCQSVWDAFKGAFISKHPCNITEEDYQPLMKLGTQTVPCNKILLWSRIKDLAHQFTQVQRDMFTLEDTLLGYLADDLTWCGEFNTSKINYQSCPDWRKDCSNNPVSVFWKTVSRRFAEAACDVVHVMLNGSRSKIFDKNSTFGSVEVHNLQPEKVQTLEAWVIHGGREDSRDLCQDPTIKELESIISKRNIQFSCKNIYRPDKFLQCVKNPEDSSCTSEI
- PROTOCOL_TEXT: Inhibition of human CD38 at 100 uM by HPLC analysis relative to control
RECORDED_ENDPOINT: inhibition (%)

Worked examples, 5 compounds total:
>  <STRUCTURE_NOTATION>
COc1ccc(O)c(/C=N\NC(=O)c2ccoc2C)c1

>  <RECORDED_ENDPOINT>
inhibition

>  <MEASURED_VALUE>
0

$$$$
>  <STRUCTURE_NOTATION>
COc1ccc(C(=O)NNC(=O)c2ccoc2C)c(O)c1

>  <RECORDED_ENDPOINT>
inhibition

>  <MEASURED_VALUE>
6.7

$$$$
>  <STRUCTURE_NOTATION>
Cc1occc1C(=O)N/N=C\c1cccc(F)c1O

>  <RECORDED_ENDPOINT>
inhibition

>  <MEASURED_VALUE>
27.2

$$$$
>  <STRUCTURE_NOTATION>
Cc1occc1-c1nnc(-c2cc(Cl)ccc2O)o1

>  <RECORDED_ENDPOINT>
inhibition

>  <MEASURED_VALUE>
0

$$$$
>  <STRUCTURE_NOTATION>
Cc1occc1-c1nnc(-c2ccccc2O)o1

>  <RECORDED_ENDPOINT>
inhibition

>  <MEASURED_VALUE>
0

$$$$

P: Cc1occc1C(=O)N/N=C\c1cccc(O)c1O
Q: Cc1occc1C(=O)N/N=C\c1cccc(Cl)c1O
R: Cc1occc1C(=O)NNC(=O)c1ccccc1O
Your job: order these 3 records by inhibition, ascending. Provide the ranking by listing each label in its place in the requested order.
P, R, Q
(P: 0%, R: 27.6%, Q: 66.7%)
